system: IGROV-1; experiment: NCI tumour cell line growth inhibition, 48 h
Activity calls are given as the source filed them. Cut-off read from the data, not from the text of the source: active = GI50 up to about 1.1 µM and inactive = higher.
Possible outcomes: active, inactive

>  <compound>
COc1ccc2cc(C(=O)c3ccccc3C(=O)O)ccc2c1

>  <group>
inactive

$$$$
>  <compound>
Oc1cn(-c2ccc(Cl)cc2)nc1-c1n[nH]c(=S)n1-c1ccccc1

>  <group>
inactive

$$$$
>  <compound>
CC(C)(C)OC(=O)N1CC(COS(C)(=O)=O)c2ccc(O)cc21 (stereo unspecified)

>  <group>
inactive

$$$$
>  <compound>
Cc1ccc(Nc2nc(C)c(C(=O)CC(=O)C(=O)Nc3c(C)cccc3C(C)(C)C)s2)cc1

>  <group>
inactive

$$$$
>  <compound>
CCCCCCCCCCCCCCCCCC(=O)Nc1ccn(C2OC(CO)C(O)C2O)c(=O)n1 (stereo unspecified)

>  <group>
inactive

$$$$
>  <compound>
O=C(O)Cc1ccc2c(c1)/C(=C1/Nc3ccccc3C1=O)C(=O)N2

>  <group>
active

$$$$
>  <compound>
CCn1c(SCC(=O)NNC(=S)Nc2ccc(C)cc2)nc2ccccc2c1=O

>  <group>
inactive

$$$$
>  <compound>
COc1cc(Br)cc2cc(-c3cn4ccsc4n3)c(=O)oc12

>  <group>
inactive

$$$$
>  <compound>
CCCCCCCCCCCCCCCC(=O)Nc1ccn(C2CCC(COP(=O)(O)OCC3OC(n4cc(F)c(=O)[nH]c4=O)CC3OC(C)=O)O2)c(=O)n1 (stereo unspecified)

>  <group>
inactive

$$$$
>  <compound>
CC(=O)O[C@H]1C(=O)[C@@]2(C)[C@H]([C@H](OC(=O)c3ccccc3)[C@]3(O)C[C@H](OC(=O)[C@H](O)[C@@H](NC(=O)OC(C)(C)C)c4ccco4)C(C)=C1C3(C)C)[C@]1(OC(C)=O)CO[C@@H]1C[C@@H]2O

>  <group>
active

$$$$
>  <compound>
CN(C)CCCNC(=O)N/N=C/c1ccccn1

>  <group>
inactive

$$$$
>  <compound>
CC1C(C#N)(C#N)C(C#N)=C(N)C1(C)[N+](=O)[O-] (stereo unspecified)

>  <group>
inactive

$$$$
>  <compound>
CC(C)(C)N1CC1CNC(=O)C(=O)NCC1CN1C(C)(C)C (stereo unspecified)

>  <group>
inactive

$$$$
>  <compound>
Cc1nc2ccccc2n1Cc1nnc(-c2ccccc2)o1

>  <group>
inactive

$$$$
>  <compound>
O=c1ccc2nc3cc(Br)ccc3sc-2c1

>  <group>
inactive

$$$$
>  <compound>
NNC(=O)c1cc(Cl)ccc1NC(=O)C12CC3CC(CC(C3)C1)C2

>  <group>
inactive

$$$$
>  <compound>
OC1CN2Cc3cc4c(cc3[C@]13C=C[C@@H](O)CC23)OCO4 (stereo partly specified)

>  <group>
inactive

$$$$
>  <compound>
O=c1[nH]c2nccn2c2c1SCCN2

>  <group>
inactive

$$$$
>  <compound>
CCC(=O)NC(Nc1cccc(F)c1C)(C(F)(F)F)C(F)(F)F

>  <group>
inactive

$$$$
>  <compound>
COc1cccc(/C=C(\NC(C)=O)c2nc3cc(Cl)ccc3[nH]2)c1

>  <group>
inactive

$$$$
>  <compound>
Clc1ccc(/C=C/c2nc3ccccc3s2)cc1Cl

>  <group>
inactive

$$$$
